System: Bacillus subtilis
test-protocol: cleaved RNA product abundance (RNA/gDNA barcode ratio) relative to median wild-type variant (ratio to wild type); higher = more accumulation of the downstream cleavage product
study-conditions: experiment (reporter, strain, medium): exp 4a: truncated aprE reporter, strain BJT201 with 2% xylose (RNase J1 expressed); cleavage site: cggR-gapA (positions -7 to +36 mutated)

residues: ACAGACGAAGGAGCCGCAAAGAAGTTATTAAGGGATGAATAATTCCTAAATATAAATATCTCTCACTTATTTAAA
cleaved RNA product abundance: 0.508
//
residues: ACAGACGAAGGAGCCGCAAAAAATTTATTAAGCGATGAATAATCCCTCAATATAAATATCTCTCACTTATTTAAA
cleaved RNA product abundance: 0.113
//
residues: ACAGACGAAGGAGCCGCAAAGAAGTTATCAAGGGATGAAAAATCCCTCAATATAAATATCTCTCACTTATTTAAA
cleaved RNA product abundance: 0.272
//
residues: ACAGACGAAGGAGCCGCAAAGAAGTAATTAAGGGATGAATAATTCCTCAATATAAATATCTCTCACTTATTTAAA
cleaved RNA product abundance: 0.263
//
residues: ACAGACGAAGGAGCCGCAAAGAAGATATTAAGGGATCAATAATCCCTCAATATAAATATCTCTCACTTATTTAAA
cleaved RNA product abundance: 0.815
//
residues: ACAGACGAAGGAGCCGCAAAGAAGTTATTAACGGAGGAATAATCCCTCAATATAAATATCTCTCACTTATTTAAA
cleaved RNA product abundance: 0.171
//
residues: ACAGACGAAGGAGCCGCAAATAAGTTATTAAGGGATGTATAATCCCTCAATATAAATATCTCTCACTTATTTAAA
cleaved RNA product abundance: 0.901
//
residues: ACAGACGAAGGAGCCGCAAAGAAGTTATTAAGGCATGAATAATCCCTCAATAGAAATATCTCTCACTTATTTAAA
cleaved RNA product abundance: 0.0906
//
residues: ACAGACGAAGGAGCCGCAAAGAAGTTATTAAGGAACGAATAATCCCTCAATATAAATATCTCTCACTTATTTAAA
cleaved RNA product abundance: 0.073
//
residues: ACAGACGAAGGAGCCGCAAAGGAGTTATTAAGGGATGAATAATACCTCAATATAAATATCTCTCACTTATTTAAA
cleaved RNA product abundance: 0.192
//
residues: ACAGACGAAGGAGCCGCATAGAAGTTATTAAGGGATCAATAATCCCTCAATATAAATATCTCTCACTTATTTAAA
cleaved RNA product abundance: 1.04
//
residues: ACAGACGAAGGAGCCGCAAAGAAGTTATTAAGGGATGAATAATCCCTAAATATAAAAATCTCTCACTTATTTAAA
cleaved RNA product abundance: 0.622
//
residues: ACAGACGAAGGAGCCGCAAAGAAGTTATTAAGGGATGAATAATCCATCCATATAAATATCTCTCACTTATTTAAA
cleaved RNA product abundance: 0.222
//
residues: ACAGACGAAGGAGCCGCAAAGAAGTTATTAAGGGATGAATAATCCCTCAATATAACTATCTCTCACTTATTTAAA
cleaved RNA product abundance: 0.146
